system.tested: pancreatic cholesterol esterase (CEase) (Sus scrofa)
Construct: gene CEL
Sequence (A0A286ZKB1 96-682): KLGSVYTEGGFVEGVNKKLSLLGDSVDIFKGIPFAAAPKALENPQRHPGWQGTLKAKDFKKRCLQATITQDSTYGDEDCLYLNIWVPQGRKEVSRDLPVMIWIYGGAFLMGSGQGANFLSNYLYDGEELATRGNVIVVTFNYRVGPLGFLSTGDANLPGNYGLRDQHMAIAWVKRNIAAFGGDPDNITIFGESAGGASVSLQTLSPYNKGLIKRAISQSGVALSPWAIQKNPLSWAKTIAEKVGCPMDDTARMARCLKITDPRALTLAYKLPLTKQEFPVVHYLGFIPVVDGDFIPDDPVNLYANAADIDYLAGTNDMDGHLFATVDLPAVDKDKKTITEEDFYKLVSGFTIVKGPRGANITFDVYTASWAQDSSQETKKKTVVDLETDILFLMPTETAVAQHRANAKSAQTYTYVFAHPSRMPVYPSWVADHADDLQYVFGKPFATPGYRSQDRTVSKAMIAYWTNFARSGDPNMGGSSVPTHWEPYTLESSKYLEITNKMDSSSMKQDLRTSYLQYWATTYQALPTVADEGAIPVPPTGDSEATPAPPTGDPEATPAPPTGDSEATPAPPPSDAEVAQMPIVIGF
assay.info: time-dependent (pseudo substrate) inhibition kinetics, PNPB hydrolysis at […] nm
Format: biochemical
Attribute: KI (inactivation)
assay.metric: KI (inactivation) (nM)

> print(dat)
                                   molecule  units.text  observed.result
1  C[C@@H](NC(=O)Oc1ccc2ccccc2c1-c1c(O)ccc2ccccc12)c1ccccc1 [(1S, αR)-1]          nM             2000
2  C[C@H](NC(=O)Oc1ccc2ccccc2c1-c1c(O)ccc2ccccc12)c1ccccc1 [(1R, αS)-1]          nM              500
3  C[C@@H](NC(=O)Oc1ccc2ccccc2c1-c1c(O)ccc2ccccc12)c1ccccc1 [(1R, αR)-1]          nM              200
4  C[C@H](NC(=O)Oc1ccc2ccccc2c1-c1c(O)ccc2ccccc12)c1ccccc1 [(1S, αS)-1]          nM             6000
